composite z-score values by entry
# ASSAY INFO: small-molecule microarray binders of probe aWnt5a, primary screen, biochemical, biotinylated probe, 635/667 nm fluorescence (AID 1113);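 note: score merges 667 nm fluorescence intensity with signal-to-noise per printed feature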
# EXPERIMENTAL CONDITIONS: higher = more signal

get_value(item= `CC(C)(C)OC(=O)N1[C@@H](C=C(Br)Br)COC1(C)C` , readout=composite z-score) returns -0.0944

get_value(item= `C=CCOC(=O)[C@@H]1[C@H]2C(=O)O[C@H](c3ccccc3)[C@H](c3ccccc3)N2[C@H](c2ccc(OCCOC(=O)[C@H]3C[C@H]4C(=O)N[C@@H](CCCCN(C)C)C(=O)N4[C@H]3c3cccc(OCCO)c3)cc2)[C@@]12C(=O)Nc1ccccc12` , readout=composite z-score) returns -0.033

get_value(item= `CC(C)N1C(=O)[C@@]2(Cc3ccccc31)c1ccccc1C(=O)N(Cc1ccccc1C(F)(F)F)[C@H]2c1ccc(CO)cc1` , readout=composite z-score) returns 0.0607

get_value(item= `COc1ccc([Si](C)(C)[C@H]2[C@H](CC(=O)N3CCC[C@H]3CO)O[C@@]3(C(=O)N(Cc4cccc(N5CCCCC5=O)c4)c4ccccc43)[C@@H]2C)cc1` , readout=composite z-score) returns -0.101

---

# Test system: PRMT1 (protein arginine N-methyltransferase 1)
# ASSAY INFO: PRMT1 binders on small-molecule microarrays, primary screen, biochemical, small-molecule microarray, 635 nm fluorescence (AID 1088);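 note: binding of Prmt1 protein to compounds spotted on small-molecule microarray slides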
# EXPERIMENTAL CONDITIONS: small-molecule microarray binding, higher = more signal
Label scheme for composite z-score: lower than 1 is Not satisfied, 1 and above is Satisfied.

> print(dat)
                                chem.smiles                              study.target     class.name
1  C=C(COC)C(=O)CC[C@@H](OC(=O)c1ccccc1-c1ccccc1C(=O)O)c1ccccc1OCCO  PRMT1 (protein arginine N-methyltransferase 1)      Satisfied
2                C=CC[C@H](O)c1ccc(O)c(F)c1  PRMT1 (protein arginine N-methyltransferase 1)  Not satisfied
3  CN(C)CCCCCCNC(=O)[C@@H]1C[C@@H]2C(=O)N[C@@H](CCCC[N+](C)(C)C)C(=O)N2[C@@H]1c1cccc(OCCO)c1  PRMT1 (protein arginine N-methyltransferase 1)  Not satisfied
4  Cc1ccc(S[C@]2(C(=O)NCc3ccccc3)CC(=O)N(Cc3ccccc3C(F)(F)F)[C@@H]2c2ccc(CO)cc2I)cc1  PRMT1 (protein arginine N-methyltransferase 1)      Satisfied
5  CCOC(=O)C[C@H]1[C@H](OC(=O)c2cc3ccccc3oc2=O)[C@@H](NC(=O)c2ccc(-c3ccccc3)cc2)c2cc(OCCCO)ccc2N1C(=O)Cc1ccc(OC)cc1  PRMT1 (protein arginine N-methyltransferase 1)      Satisfied
6  CCOC(=O)C[C@H]1[C@H](OC(=O)c2ccccc2-c2ccccc2)[C@@H](NC(=O)CC(C)C)c2cc(OCCCO)ccc2N1C(=O)c1ccccc1  PRMT1 (protein arginine N-methyltransferase 1)  Not satisfied

Request: State whether the measured composite z-score reaches 1, counting equality as reaching it, for `C=C(COC)/C(=C/C[C@@H](OC(C)=O)c1cccc(OCCO)c1)c1cnc2ccccc2c1`
Response: Satisfied

---

# STUDY TARGET: Fibroblast growth factor 10 (Homo sapiens)
# ASSAY INFO: FGF10 binders on small-molecule microarrays, primary screen, biochemical, small-molecule microarray, 635 nm fluorescence (AID 1102)
# EXPERIMENTAL CONDITIONS: FGF10 binding, fluorescence 635 nm, higher = more signal
Label scheme for composite z-score: lower than 0.9 is Criterion not met, 0.9 and above is Criterion met.

Request: State whether the measured composite z-score reaches 0.9, counting equality as reaching it, for `C=CC[C@]12N=C(c3ccc(OCCCO)cc3)O[C@H]1c1ccccc1N(CCC)C2=O`
Response: Criterion met

Request: State whether the measured composite z-score reaches 0.9, counting equality as reaching it, for `CC(C)N1C(=O)[C@@]2(Cc3ccccc31)c1ccccc1C(=O)N(Cc1ccccc1)[C@H]2c1ccc(CO)cc1`
Response: Criterion not met

Request: State whether the measured composite z-score reaches 0.9, counting equality as reaching it, for `Cc1ccc(N2C(=O)c3ccccc3[C@@H](C(=O)NCCN3CCOCC3)[C@@H]2c2ccc(CO)cc2)nc1`
Response: Criterion not met

Request: State whether the measured composite z-score reaches 0.9, counting equality as reaching it, for `COc1cccc(C)c1NC(=O)O[C@H]1[C@H](OC(=O)Nc2ccccc2)[C@@H](OC(=O)Nc2ccccc2)[C@@H](OC)O[C@@H]1CO`
Response: Criterion met

Request: State whether the measured composite z-score reaches 0.9, counting equality as reaching it, for `C=CCOC(=O)[C@@H]1[C@H]2C(=O)O[C@H](c3ccccc3)[C@H](c3ccccc3)N2[C@H](c2ccc(OCCOC(=O)[C@H]3C[C@H]4C(=O)N[C@@H](CCCCN(C)C)C(=O)N4[C@H]3c3cccc(OCCO)c3)cc2)[C@@]12C(=O)Nc1ccccc12`
Response: Criterion not met

Request: State whether the measured composite z-score reaches 0.9, counting equality as reaching it, for `O=C/C=C/c1ccc(-c2ccccc2)cc1`
Response: Criterion not met

Request: State whether the measured composite z-score reaches 0.9, counting equality as reaching it, for `CN(C)CCCCCCNC(=O)[C@@H]1C[C@@H]2C(=O)N[C@@H](CCCC[N+](C)(C)C)C(=O)N2[C@@H]1c1cccc(OCCO)c1`
Response: Criterion not met

Request: State whether the measured composite z-score reaches 0.9, counting equality as reaching it, for `CCc1cccc(NC(=O)O[C@H]2[C@H](OC(=O)Nc3ccccc3-c3ccccc3)[C@H](OC(=O)Nc3ccccc3-c3ccccc3)[C@@H](OC)O[C@@H]2CO)c1`
Response: Criterion met
